Reference source for all entries: PubChem BioAssay (NCATS)

test: Primary qHTS for inhibitors of nuclear receptor binding SET domain protein 2 (NSD2) in an RCH-ACV wild type WT cells (2C) (AID 1645877); conditions: RCH-ACV (leukaemia line) NSD2 WT (2C) viability, CellTiter-Glo, 72 h; series mostly up to 44.9 µM; further: nearly all actives have a fitted effect of over 70% in size; further: potency means the concentration at half of the fitted maximal effect
Inconclusive results are not listed. Active and inactive are the calls of the source. The call rests on the fitted dose curve; in most records, active means well fitted inhibition curve with a large enough effect; inconclusive means small, poorly fitted or top-dose-only effect; inactive means no such curve, though single readings can be large or run the other way.

{"molecule": "CCCCCCCCCCCCCCCCCCOCC(O)CO (centres undefined)", "Potency": "inactive"}
{"molecule": "CN1CCOC(c2ccccc2)c2ccccc2C1 (centres undefined)", "Potency": "inactive"}
{"molecule": "COc1ccc(S(=O)(=O)Nc2nnc(CC(C)C)s2)cc1", "Potency": "inactive"}
{"molecule": "NC1CCN(c2cccc(Cl)n2)CC1", "Potency": "inactive"}
{"molecule": "O=C(O)[C@@H]1CSCN1", "Potency": "inactive"}
{"molecule": "CSc1ccc2c(c1)C(N1CCN(C)CC1)Cc1ccccc1S2 (centres undefined)", "Potency": "15 µM (active)"}
{"molecule": "O=C(O)c1ccccn1", "Potency": "inactive"}
{"molecule": "CC(=O)Nc1ccc(/C=N/NC(N)=S)cc1", "Potency": "16.8 µM (active)"}
{"molecule": "C=CCn1c(=O)n([C@@H]2O[C@H](CO)[C@@H](O)[C@H]2O)c2nc(N)[nH]c(=O)c21", "Potency": "inactive"}
{"molecule": "O=S(=O)(O)NC1CCCCC1", "Potency": "inactive"}
{"molecule": "CCCOC(=O)c1ccccc1", "Potency": "inactive"}
{"molecule": "O=C(O)Cc1sc(-c2ccccc2)nc1-c1ccc(Cl)cc1", "Potency": "inactive"}
{"molecule": "CCOc1ccc2ccccc2c1C(=O)N[C@@H]1C(=O)N2[C@@H]1SC(C)(C)[C@@H]2C(=O)O", "Potency": "inactive"}
{"molecule": "OCC(CO)N[C@H]1C[C@](O)(CO)[C@@H](O)[C@H](O)[C@H]1O", "Potency": "inactive"}
{"molecule": "C#CCN(C)Cc1ccccc1", "Potency": "inactive"}
{"molecule": "Cn1c(=O)c2c(ncn2CC2OCCO2)n(C)c1=O", "Potency": "inactive"}
{"molecule": "O=c1cc(CO)occ1O", "Potency": "inactive"}
{"molecule": "CC(=O)OCC(=O)[C@@]1(O)CC[C@H]2[C@@H]3CCC4=CC(=O)CC[C@]4(C)[C@H]3C(=O)C[C@@]21C", "Potency": "inactive"}
{"molecule": "CN(C)CCCN1c2ccccc2Sc2ccc(Cl)cc21", "Potency": "13.3 µM (active)"}
{"molecule": "O=C(Oc1ccccc1C(=O)O)c1ccccc1O", "Potency": "inactive"}
{"molecule": "CNCCC(Oc1ccc(C(F)(F)F)cc1)c1ccccc1 (centres undefined)", "Potency": "23.7 µM (active)"}
{"molecule": "O=c1[nH]cnc2c1ncn2[C@@H]1O[C@H](CO)[C@@H](O)[C@H]1O", "Potency": "inactive"}
{"molecule": "Cc1ncc([N+](=O)[O-])n1CC(O)CCl (centres undefined)", "Potency": "inactive"}
{"molecule": "CCN(CC)CCNC(C(=O)OCCC(C)C)c1ccccc1 (centres undefined)", "Potency": "inactive"}
{"molecule": "CCN(CC)CCCC(C)Nc1c2ccc(Cl)cc2nc2ccc(OC)cc12 (centres undefined)", "Potency": "5.25 µM (active)"}
{"molecule": "COCCOC(=O)C1=C(C)NC(C)=C(C(=O)OC/C=C/c2ccccc2)C1c1cccc([N+](=O)[O-])c1 (centres undefined)", "Potency": "21.1 µM (active)"}
{"molecule": "CC(C)(O)c1ccccc1CC[C@@H](SCC1(CC(=O)O)CC1)c1cccc(/C=C/c2ccc3ccc(Cl)cc3n2)c1", "Potency": "inactive"}
{"molecule": "Nc1nc2c(ncn2CCC(CO)CO)c(=O)[nH]1", "Potency": "inactive"}
{"molecule": "COc1cc(C(=O)N2CCOCC2)cc(OC)c1OC", "Potency": "inactive"}
{"molecule": "CCn1cc(C(=O)O)c(=O)c2cnc(N3CCNCC3)nc21", "Potency": "inactive"}
{"molecule": "O=C1O[C@H]([C@@H](O)CO)C(O)=C1O", "Potency": "inactive"}
{"molecule": "NCCNCCNCCN", "Potency": "inactive"}
{"molecule": "CC1(C)[C@@H]2CC[C@@]1(C)C(=O)C2", "Potency": "inactive"}
{"molecule": "CC(C)C(=O)c1c(C(C)C)nn2ccccc12", "Potency": "inactive"}

---

system: CP297; experiment: qHTS profiling for inhibitors of Plasmodium falciparum proliferation (AID 504749); further: nearly all actives have a fitted effect of over 60% in size; settings: P. falciparum in erythrocytes, SYBR Green DNA, 72 h; series mostly up to 28.7 µM
Results filed as inconclusive are left out. The source made the active and inactive calls. Calls follow the shape of the dose curve; as a rule, active = well fitted inhibition curve with a large enough effect; inconclusive = small, poorly fitted or top-dose-only effect; inactive = flat fitted curve, though single readings scatter.
Possible outcomes: YES (active), NO (inactive)

{"compound": "CC(=O)NC(Cc1ccccc1)C(=O)O (configuration not stated)", "label.class": "NO"}
{"compound": "Cc1cc(N)c2ccccc2[n+]1CCCCCCCCCC[n+]1c(C)cc(N)c2ccccc21", "label.class": "YES"}
{"compound": "COc1cc2[nH]c(=O)[nH]c(=O)c2cc1OC", "label.class": "NO"}
{"compound": "NC(=O)NC(=O)Cc1ccccc1", "label.class": "NO"}
{"compound": "COc1ccc(Cl)cc1C(=O)NCCc1ccc(S(=O)(=O)NC(=O)NC2CCCCC2)cc1", "label.class": "NO"}
{"compound": "NCCNCCNCCNCCN", "label.class": "NO"}
{"compound": "O=C1OC(OC(=O)c2cccnc2Nc2cccc(C(F)(F)F)c2)c2ccccc21 (configuration not stated)", "label.class": "NO"}
{"compound": "COc1ccc2c(c1)C(=O)N(CCc1ccc(S(=O)(=O)NC(=O)NC3CCCCC3)cc1)C(=O)C2(C)C", "label.class": "NO"}
{"compound": "O=C1NC(=O)[C@@]2(CCOc3ccc(F)cc32)N1", "label.class": "NO"}
{"compound": "Oc1cn2c(n1)Nc1ccc(Cl)c(Cl)c1C2", "label.class": "NO"}
{"compound": "CCCCCCCCCCCCCCCCCCOCC(O)CO (configuration not stated)", "label.class": "NO"}
{"compound": "CC1(C)[C@@H]2CC[C@@]1(C)C(=O)C2", "label.class": "NO"}
{"compound": "CC1=C(CC(=O)O)c2cc(F)ccc2/C1=C\\c1ccc(S(C)=O)cc1 (configuration not stated)", "label.class": "NO"}
{"compound": "CNCCC(Oc1ccc(C(F)(F)F)cc1)c1ccccc1 (configuration not stated)", "label.class": "NO"}
{"compound": "O=C(O)COc1nn(Cc2ccccc2)c2ccccc12", "label.class": "NO"}
{"compound": "Cc1cc2c(cc1S(N)(=O)=O)S(=O)(=O)CCC2", "label.class": "NO"}
{"compound": "CCC(=O)c1ccc(O)cc1", "label.class": "NO"}

---

test system: astro; experiment: Drug repurposing screens with cells derived from glioblastoma tumor samples (AID 1345199); conditions: viability, ATP luminescence, 48 h; series mostly up to 45.9 µM; further: nearly all actives have a fitted effect of over 40% in size
Inconclusive results are not listed. Calls of active or inactive are those of the source. The call rests on the fitted dose curve; in most records, active means well fitted inhibition curve with a large enough effect; inconclusive means small, poorly fitted or top-dose-only effect; inactive means flat fitted curve, though single readings scatter.
Possible outcomes: YES (active), NO (inactive)

{"molecule": "O=C(CCCN1CCN(c2ccccn2)CC1)c1ccc(F)cc1", "tested.target": "astro", "label.class": "NO"}
{"molecule": "O=C(O)c1ccccn1", "tested.target": "astro", "label.class": "NO"}
{"molecule": "O=C1O[C@H]([C@@H](O)CO)C(O)=C1O", "tested.target": "astro", "label.class": "NO"}
{"molecule": "NC1CCN(c2cccc(Cl)n2)CC1", "tested.target": "astro", "label.class": "NO"}
{"molecule": "CC(C)(C)C(=O)C(Oc1ccc(Cl)cc1)n1ccnc1 (stereo not drawn)", "tested.target": "astro", "label.class": "NO"}
{"molecule": "C[C@]12C[C@H](O)[C@H]3[C@@H](CCC4=CC(=O)CC[C@@]43C)[C@@H]1CC[C@@H]2C(=O)CO", "tested.target": "astro", "label.class": "NO"}
{"molecule": "CCN(CC)CCSC(=O)C(c1ccccc1)c1ccccc1", "tested.target": "astro", "label.class": "NO"}
{"molecule": "CN(C)CCCN1c2ccccc2Sc2ccc(Cl)cc21", "tested.target": "astro", "label.class": "YES"}

---

target: Luciferin 4-monooxygenase (Photinus pyralis); experiment: Primary firefly luciferase (FLuc) qHTS assay for identification of artifact compounds. (AID 1845220); settings: purified firefly luciferase, luminescence, 5 min; at 54.1 µM (top of the series) unless noted; series mostly up to 54.1 µM; further: nearly all actives have a fitted effect of over 60% in size
Activity calls are given as the source filed them. Calls come from the whole dose curve; as a rule, active = well fitted inhibition curve with a large enough effect; inconclusive = small, poorly fitted or top-dose-only effect; inactive = flat fitted curve, though single readings scatter.

{"compound": "CC(C(O)c1ccc(O)cc1)N1CCC(Cc2ccccc2)CC1 (stereo unspecified)", "outcome": "inactive [at 25.7 µM]"}
{"compound": "COc1ccc2cc1Oc1ccc(cc1)C[C@H]1c3c(cc4c(c3Oc3cc5c(cc3OC)CCN(C)[C@@H]5C2)OCO4)CCN1C", "outcome": "inactive"}
{"compound": "CNC(=O)Oc1ccc2c(c1)[C@]1(C)CCN(C)[C@@H]1N2C", "outcome": "inactive"}
{"compound": "COc1ccc2c(c1)C(=O)N(CCc1ccc(S(=O)(=O)NC(=O)NC3CCCCC3)cc1)C(=O)C2(C)C", "outcome": "inactive"}
{"compound": "CCOc1nc2cccc(C(=O)O)c2n1Cc1ccc(-c2ccccc2-c2nn[nH]n2)cc1", "outcome": "inactive"}
{"compound": "CCN(CC)CCCC(C)Nc1c2ccc(Cl)cc2nc2ccc(OC)cc12 (stereo unspecified)", "outcome": "inactive [at 25.7 µM]"}
{"compound": "C[C@@H]1C[C@H]2[C@@H]3C[C@H](F)C4=CC(=O)C=C[C@]4(C)[C@@]3(F)[C@@H](O)C[C@]2(C)[C@@]1(O)C(=O)CO", "outcome": "inactive"}
{"compound": "OCC(O)CN1CCN(c2ccccc2)CC1 (stereo unspecified)", "outcome": "inactive"}
{"compound": "Cc1cccc(Nc2cc(Cl)nc(SCC(=O)O)n2)c1C", "outcome": "inactive"}
{"compound": "O=c1[nH]cnc2c1ncn2[C@@H]1O[C@H](CO)[C@@H](O)[C@H]1O", "outcome": "inactive"}
{"compound": "Cc1ccc2nc(N)[nH]c(=O)c2c1Sc1ccncc1", "outcome": "inactive"}
{"compound": "CCCCOc1cc(C(=O)OCCN(CC)CC)ccc1N", "outcome": "inactive"}
{"compound": "CC(C)c1c(C(=O)Nc2ccccc2)c(-c2ccccc2)c(-c2ccc(F)cc2)n1CC[C@@H](O)C[C@@H](O)CC(=O)O", "outcome": "inactive [at 25.7 µM]"}
{"compound": "O=C(CCCN1CCN(c2ccccn2)CC1)c1ccc(F)cc1", "outcome": "inactive"}
{"compound": "O=C1Nc2ccc(Cl)cc2[C@@](C#CC2CC2)(C(F)(F)F)O1", "outcome": "inactive"}
